Assay: Analysis of Col1a1/FVII siRNA lipid particle composition (Production Example 2)
Type: physicochemical
Details: lipid particle composition with Col1a1 and FVII siRNA; RiboGreen
PROPERTY LABEL: Encapsulation ratio (%)
Value expressed in %; do not type the unit.

I have this compound here, CCCC/C=C\CCCCCCCC(=O)OCC(COC(=O)CCCCCCC/C=C\CCCC)(COC(=O)CCCCCCC/C=C\CCCCCC)COC(=O)CCCN(C)C [Example 4] , and I need its recorded Encapsulation ratio.
89

I have this compound here, CCCC/C=C\CCCCCCCC(=O)OCC(COC(=O)CCCCCCC/C=C\CCCC)(COC(=O)CCCCCCCCCCC)COC(=O)CCCN(C)C [Example 11] , and I need its recorded Encapsulation ratio.
91

I have this compound here, CCCC/C=C\CCCCCCCC(=O)OCC(COC(=O)CCCCCCC/C=C\CCCC)(COC(=O)CCCCCCCCC)COC(=O)CCCN(C)C [Example 10] , and I need its recorded Encapsulation ratio.
90

I have this compound here, CCCC/C=C\CCCCCCCC(=O)OCC(COC(=O)CCCCCCC/C=C\CCCC)(COC(=O)CCCCCCC/C=C\CCCC)COC(=O)CCCCCN(C)C [Example 3] , and I need its recorded Encapsulation ratio.
95

I have this compound here, CCCC/C=C\CCCCCCCC(=O)OCC(COC(=O)CCCCCCC/C=C\CCCC)(COC(=O)CCCCCCC/C=C\CCCCCCCC)COC(=O)CCCCN(C)C [Example 6] , and I need its recorded Encapsulation ratio.
98

I have this compound here, CCCC/C=C\CCCCCCCC(=O)OCC(COC(=O)CCCCCCC/C=C\CCCC)(COC(=O)CCCCCCC/C=C\CCCC)COC(=O)CCCCN(C)C [Example 2] , and I need its recorded Encapsulation ratio.
98

I have this compound here, CCCC/C=C\CCCCCCCC(=O)OCC(COC(=O)CCCCCCC/C=C\CCCC)(COC(=O)CCCCCCC/C=C\CCCCCC)COC(=O)CCCCN(C)C [Example 5] , and I need its recorded Encapsulation ratio.
94

I have this compound here, CCCC/C=C\CCCCCCCC(=O)OCC(COC(=O)CCCCCCC/C=C\C/C=C\CCCCC)(COC(=O)CCCCCCC/C=C\CCCC)COC(=O)CCCCN(C)C [Example 7] , and I need its recorded Encapsulation ratio.
96

====

Provide the reported mRNA Concentration of each item.
Test: Analysis of luciferase mRNA lipid particle composition (Production Example 1)
Assay type: physicochemical
Conditions: lipid particle composition with luciferase mRNA; RiboGreen
Value expressed in µg/mL; do not type the unit.

I have this compound here, `CCCC/C=C\CCCCCCCC(=O)OCC(COC(=O)CCCCCCC/C=C\CCCC)(COC(=O)CCCCCCCCC)COC(=O)CCCN(C)C` , and I need its recorded mRNA Concentration.
86

I have this compound here, `CCCC/C=C\CCCCCCCC(=O)OCC(COC(=O)CCCCCCC/C=C\CCCC)(COC(=O)CCCCCCC/C=C\CCCCCC)COC(=O)CCCN(C)C` , and I need its recorded mRNA Concentration.
113

I have this compound here, `CCCC/C=C\CCCCCCCC(=O)OCC(COC(=O)CCCCCCC/C=C\CCCC)(COC(=O)CCCCCCCCCCC)COC(=O)CCCN(C)C` , and I need its recorded mRNA Concentration.
85

I have this compound here, `CCCC/C=C\CCCCCCCC(=O)OCC(COC(=O)CCCCCCC/C=C\CCCC)(COC(=O)CCCCCCC/C=C\CCCC)COC(=O)CCCN(C)C` , and I need its recorded mRNA Concentration.
136

I have this compound here, `CCCC/C=C\CCCCCCCC(=O)OCC(COC(=O)CCCCCCC)(COC(=O)CCCCCCC/C=C\CCCC)COC(=O)CCCN(C)C` , and I need its recorded mRNA Concentration.
129

I have this compound here, `CCCC/C=C\CCCCCCCC(=O)OCC(COC(=O)CCCCCCC/C=C\CCCC)(COC(=O)CCCCCCC/C=C\CCCCCC)COC(=O)CCCCN(C)C` , and I need its recorded mRNA Concentration.
96

I have this compound here, `CCCC/C=C\CCCCCCCC(=O)OCC(COC(=O)CCCCCCC/C=C\CCCC)(COC(=O)CCCCCCC/C=C\CCCC)COC(=O)CCCCN(C)C` , and I need its recorded mRNA Concentration.
73

I have this compound here, `CCCC/C=C\CCCCCCCC(=O)OCC(COC(=O)CCCCCCC/C=C\CCCC)(COC(=O)CCCCCCC/C=C\CCCC)COC(=O)CCCCCN(C)C` , and I need its recorded mRNA Concentration.
87

I have this compound here, `CCCC/C=C\CCCCCCCC(=O)OCC(COC(=O)CCCCCCC)(COC(=O)CCCCCCC/C=C\CCCC)COC(=O)CCN(C)C` , and I need its recorded mRNA Concentration.
84
